Test system: WT Max(13-93) synthetic (M65Nle)
Experiment: PBM 8-mer E-score (E-score (rank enrichment, -0.5 to 0.5)); higher = stronger preferential binding
Whole data set: some 33,000 sequences, median “E-score (rank enrichment, -0.5 to 0.5)” near -0.0075, cut for the highest 2% near 0.23. The sample holds the highest values, similar sequences and a random draw of the others, so the mix is not that of the screen.
Kind request: treat 0.1 as inclusive, so PBM 8-mer E-score at 0.1 or higher is met, anything lower is not met.

{"columns": ["sequence-content", "study-target", "group-label"],
 "data": [
  ["CTCCTAAC", "WT Max(13-93) synthetic (M65Nle)", "met"],
  ["CCCGCGCC", "WT Max(13-93) synthetic (M65Nle)", "not met"],
  ["CGTGGGGC", "WT Max(13-93) synthetic (M65Nle)", "met"],
  ["TTACTAAA", "WT Max(13-93) synthetic (M65Nle)", "met"],
  ["CGTACCAG", "WT Max(13-93) synthetic (M65Nle)", "not met"],
  ["ATCCTAAC", "WT Max(13-93) synthetic (M65Nle)", "met"],
  ["TCTTGGAA", "WT Max(13-93) synthetic (M65Nle)", "not met"],
  ["CAAGAATA", "WT Max(13-93) synthetic (M65Nle)", "met"],
  ["AAAAAATA", "WT Max(13-93) synthetic (M65Nle)", "met"],
  ["ATACTAAC", "WT Max(13-93) synthetic (M65Nle)", "met"],
  ["CAAATCGA", "WT Max(13-93) synthetic (M65Nle)", "not met"],
  ["TGTCTAAA", "WT Max(13-93) synthetic (M65Nle)", "met"],
  ["GAAGAATA", "WT Max(13-93) synthetic (M65Nle)", "met"],
  ["CGTTCATC", "WT Max(13-93) synthetic (M65Nle)", "not met"]
]}

* * *

Test system: WT Max(13-93) synthetic (M65Nle)
Assay: PBM 8-mer E-score (E-score (rank enrichment, -0.5 to 0.5)); higher = stronger preferential binding
In all, about 33,000 sequences were measured (“E-score (rank enrichment, -0.5 to 0.5)”: median about -0.0075, highest 2% from about 0.23 on). The full list was thinned out, with the highest values kept by preference.
// bucketize PBM 8-mer E-score: bucket 1: < -0.06; bucket 2: ≥ -0.06 and < 0.1; bucket 3: ≥ 0.1

{"columns": ["sequence-content", "group-label"],
 "data": [
  ["AATAATGT", "bucket 3"],
  ["TCGCATCA", "bucket 2"],
  ["GCCGAAGC", "bucket 1"],
  ["GACCCCTA", "bucket 1"],
  ["AGGGAGTC", "bucket 1"],
  ["TAAATACA", "bucket 3"],
  ["CACGCGAG", "bucket 2"],
  ["CTCGAAAG", "bucket 1"],
  ["CGCGGCCA", "bucket 2"],
  ["CACGCGAA", "bucket 2"],
  ["GGCGACTA", "bucket 2"],
  ["CACGCGTA", "bucket 3"],
  ["AAAATACA", "bucket 2"],
  ["GATAATGA", "bucket 3"],
  ["CATAATGA", "bucket 3"]
]}

These data points were gathered from the supplement of paper PMC12636033.
